target_of_assay: cKIT (Homo sapiens)
Sequence (P10721 26-976): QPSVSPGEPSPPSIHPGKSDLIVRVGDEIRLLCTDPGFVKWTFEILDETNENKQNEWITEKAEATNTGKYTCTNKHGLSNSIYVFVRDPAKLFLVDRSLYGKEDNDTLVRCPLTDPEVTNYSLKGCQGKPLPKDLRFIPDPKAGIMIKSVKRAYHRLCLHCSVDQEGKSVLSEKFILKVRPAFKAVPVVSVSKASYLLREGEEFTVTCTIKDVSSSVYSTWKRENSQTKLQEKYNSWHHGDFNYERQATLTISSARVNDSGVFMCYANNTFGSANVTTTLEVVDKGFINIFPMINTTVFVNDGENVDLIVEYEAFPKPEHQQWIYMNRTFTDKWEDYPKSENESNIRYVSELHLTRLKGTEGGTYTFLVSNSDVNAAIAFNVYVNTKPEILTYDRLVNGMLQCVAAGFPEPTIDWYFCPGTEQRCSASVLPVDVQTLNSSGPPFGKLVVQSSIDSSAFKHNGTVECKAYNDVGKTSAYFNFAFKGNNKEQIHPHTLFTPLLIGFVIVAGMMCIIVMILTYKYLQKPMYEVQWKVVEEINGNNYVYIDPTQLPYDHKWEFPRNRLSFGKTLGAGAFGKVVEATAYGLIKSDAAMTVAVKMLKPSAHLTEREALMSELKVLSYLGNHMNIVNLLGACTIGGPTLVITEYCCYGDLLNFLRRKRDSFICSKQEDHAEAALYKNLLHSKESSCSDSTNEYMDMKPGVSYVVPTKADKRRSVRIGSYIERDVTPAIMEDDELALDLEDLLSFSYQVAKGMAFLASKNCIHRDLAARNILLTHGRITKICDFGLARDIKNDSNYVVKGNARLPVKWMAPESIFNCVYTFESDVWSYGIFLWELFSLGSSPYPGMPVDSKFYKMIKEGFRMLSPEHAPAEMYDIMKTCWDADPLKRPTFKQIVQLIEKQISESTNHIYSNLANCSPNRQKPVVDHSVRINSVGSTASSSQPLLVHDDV
procedure_summary: Off-chip mobility-shift kinase assay (Caliper LABCHIP), C-kit
condition_summary: concentration 3.0E−07
Answer F if C-kit AVG % Activity at 3.0E−07 is under 80%, and T if it is 80% or more.

COCCOCCOCCOCCOCCOCCOCCNCc1ccc(C(=O)Nc2ccc(C)c(Nc3nccc(-c4cccnc4)n3)c2)cc1 : F
COCCOCCOCCOCCOCCNCc1ccc(C(=O)Nc2ccc(C)c(Nc3nccc(-c4cccnc4)n3)c2)cc1 [mPEG5-N-Imatinib] : F
COCCOCCOCCOCCOCCOCCOCCN1CCN(Cc2ccc(C(=O)Nc3ccc(C)c(Nc4nccc(-c5cccnc5)n4)c3)cc2)CC1 [mPEG7-N′-Imatinib] : T
COCCOCCOCCOCCOCCOCCOCCOCCOCCN1CCN(Cc2ccc(C(=O)Nc3ccc(C)c(Nc4nccc(-c5cccnc5)n4)c3)cc2)CC1 [mPEG9-N′-Imatinib] : F

* * *

target_of_assay: ABL (Homo sapiens, UniProt P00519)
Sequence (P00519 whole entry): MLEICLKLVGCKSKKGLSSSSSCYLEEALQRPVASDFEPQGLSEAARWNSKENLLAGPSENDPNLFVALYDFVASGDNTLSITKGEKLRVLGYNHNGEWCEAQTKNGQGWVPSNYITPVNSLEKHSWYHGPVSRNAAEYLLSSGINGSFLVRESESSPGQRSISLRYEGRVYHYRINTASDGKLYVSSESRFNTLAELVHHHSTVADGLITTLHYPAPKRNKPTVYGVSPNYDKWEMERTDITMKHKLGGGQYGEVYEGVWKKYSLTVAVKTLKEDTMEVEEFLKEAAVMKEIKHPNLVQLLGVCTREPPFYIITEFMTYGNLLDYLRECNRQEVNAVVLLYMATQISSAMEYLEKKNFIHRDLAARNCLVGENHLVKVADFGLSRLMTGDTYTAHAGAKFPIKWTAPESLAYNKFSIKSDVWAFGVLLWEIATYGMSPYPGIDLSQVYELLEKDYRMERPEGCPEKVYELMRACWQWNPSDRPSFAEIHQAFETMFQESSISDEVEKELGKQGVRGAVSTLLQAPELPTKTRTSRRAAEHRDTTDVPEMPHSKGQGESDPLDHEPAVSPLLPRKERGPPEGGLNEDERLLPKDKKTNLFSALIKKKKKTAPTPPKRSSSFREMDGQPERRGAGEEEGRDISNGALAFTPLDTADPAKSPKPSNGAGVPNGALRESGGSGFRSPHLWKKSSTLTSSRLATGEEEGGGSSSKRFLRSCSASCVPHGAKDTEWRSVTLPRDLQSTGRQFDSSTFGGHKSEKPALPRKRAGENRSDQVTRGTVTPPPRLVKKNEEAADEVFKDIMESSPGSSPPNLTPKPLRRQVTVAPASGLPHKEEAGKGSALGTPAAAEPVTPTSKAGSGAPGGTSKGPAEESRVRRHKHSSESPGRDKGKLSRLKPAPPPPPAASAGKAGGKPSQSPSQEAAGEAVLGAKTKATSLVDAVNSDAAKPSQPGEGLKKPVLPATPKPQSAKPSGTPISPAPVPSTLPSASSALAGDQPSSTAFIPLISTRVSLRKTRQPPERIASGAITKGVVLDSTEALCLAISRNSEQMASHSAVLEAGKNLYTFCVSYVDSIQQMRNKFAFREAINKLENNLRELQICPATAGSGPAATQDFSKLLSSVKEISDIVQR
procedure_summary: Off-chip mobility-shift kinase assay (Caliper LABCHIP), ABL
condition_summary: concentration 1.0E−10; imatinib-corresponding compounds
Documented ABL AVG % Activity at 1.0E−10 across a set of molecules
measurement_kind: ABL AVG % Activity at 1.0E−10

COCCOCCOCCOCCOCCNCc1ccc(C(=O)Nc2ccc(C)c(Nc3nccc(-c4cccnc4)n3)c2)cc1 : 96%
COCCOCCOCCOCCOCCOCCOCCOCCOCCNCc1ccc(C(=O)Nc2ccc(C)c(Nc3nccc(-c4cccnc4)n3)c2)cc1 : 96%
COCCOCCOCCOCCOCCOCCOCCNCc1ccc(C(=O)Nc2ccc(C)c(Nc3nccc(-c4cccnc4)n3)c2)cc1 : 97%
COCCOCCOCCOCCOCCOCCOCCOCCOCCN1CCN(Cc2ccc(C(=O)Nc3ccc(C)c(Nc4nccc(-c5cccnc5)n4)c3)cc2)CC1 : 97%
COCCOCCOCCOCCOCCOCCOCCN1CCN(Cc2ccc(C(=O)Nc3ccc(C)c(Nc4nccc(-c5cccnc5)n4)c3)cc2)CC1 : 96%

* * *

target_of_assay: ABL (Homo sapiens, UniProt P00519)
procedure_summary: Off-chip mobility-shift kinase assay (Caliper LABCHIP), ABL
condition_summary: concentration 1.0E−09; dasatinib-corresponding compounds
measurement_kind: ABL AVG % Activity at 1.0E−09 (%)

COCCOCCOCCOCC(=O)NC(CC(C)C)C(=O)OCCN1CCN(c2cc(Nc3ncc(C(=O)Nc4c(C)cccc4Cl)s3)nc(C)n2)CC1 (centres unmarked) : 14
COCCOCCOCCOCCOCCNC(=O)OCCN1CCN(c2cc(Nc3ncc(C(=O)Nc4c(C)cccc4Cl)s3)nc(C)n2)CC1 : 4
COCCOCCOCCOCCOCCOCCOCCOCCOCCNC(=O)OCCN1CCN(c2cc(Nc3ncc(C(=O)Nc4c(C)cccc4Cl)s3)nc(C)n2)CC1 : 4
COCCOCCOCCOCC(=O)NC(C(=O)OCCN1CCN(c2cc(Nc3ncc(C(=O)Nc4c(C)cccc4Cl)s3)nc(C)n2)CC1)C(C)C (centres unmarked) : 10
COCCOCCOCCOCCOCCOCCOCCNC(=O)OCCN1CCN(c2cc(Nc3ncc(C(=O)Nc4c(C)cccc4Cl)s3)nc(C)n2)CC1 : 4

* * *

target_of_assay: PDGFRβ (Homo sapiens, UniProt P09619)
Sequence (P09619 33-1106): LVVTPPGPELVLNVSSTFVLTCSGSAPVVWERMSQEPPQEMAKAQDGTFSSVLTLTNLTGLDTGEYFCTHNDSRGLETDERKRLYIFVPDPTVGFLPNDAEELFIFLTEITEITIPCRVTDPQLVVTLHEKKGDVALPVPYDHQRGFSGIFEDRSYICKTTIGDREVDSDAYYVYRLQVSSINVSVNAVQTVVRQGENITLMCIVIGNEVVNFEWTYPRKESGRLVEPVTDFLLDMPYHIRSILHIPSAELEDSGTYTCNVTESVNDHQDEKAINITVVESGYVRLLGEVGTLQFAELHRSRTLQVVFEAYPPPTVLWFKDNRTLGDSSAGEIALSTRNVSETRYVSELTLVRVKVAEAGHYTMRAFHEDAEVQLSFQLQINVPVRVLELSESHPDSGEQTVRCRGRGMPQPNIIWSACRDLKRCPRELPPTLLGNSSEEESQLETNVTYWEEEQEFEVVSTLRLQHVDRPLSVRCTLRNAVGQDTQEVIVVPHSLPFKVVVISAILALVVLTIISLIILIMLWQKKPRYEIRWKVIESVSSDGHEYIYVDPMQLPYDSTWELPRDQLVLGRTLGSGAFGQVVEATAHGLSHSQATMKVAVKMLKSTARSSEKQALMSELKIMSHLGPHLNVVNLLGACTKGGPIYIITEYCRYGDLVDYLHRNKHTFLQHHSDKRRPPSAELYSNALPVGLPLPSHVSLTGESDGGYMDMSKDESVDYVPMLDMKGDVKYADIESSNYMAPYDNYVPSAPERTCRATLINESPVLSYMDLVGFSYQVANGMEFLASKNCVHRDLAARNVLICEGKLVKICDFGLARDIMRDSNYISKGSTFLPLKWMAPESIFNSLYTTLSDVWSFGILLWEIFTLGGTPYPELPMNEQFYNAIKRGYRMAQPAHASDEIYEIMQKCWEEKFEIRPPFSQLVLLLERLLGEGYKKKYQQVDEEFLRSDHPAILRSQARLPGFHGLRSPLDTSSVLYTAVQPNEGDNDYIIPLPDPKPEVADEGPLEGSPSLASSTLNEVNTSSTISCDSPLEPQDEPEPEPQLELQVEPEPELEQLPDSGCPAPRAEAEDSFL
procedure_summary: Off-chip mobility-shift kinase assay (Caliper LABCHIP), PDGFR
condition_summary: concentration 1.0E−10
Documented PDGFR AVG % Activity at 1.0E−10 across a set of molecules
measurement_kind: PDGFR AVG % Activity at 1.0E−10 (%)

COCCOCCOCCOCCOCCOCCOCCN1CCN(Cc2ccc(C(=O)Nc3ccc(C)c(Nc4nccc(-c5cccnc5)n4)c3)cc2)CC1 [mPEG7-N′-Imatinib] : 95
COCCOCCOCCOCCOCCOCCOCCNCc1ccc(C(=O)Nc2ccc(C)c(Nc3nccc(-c4cccnc4)n3)c2)cc1 : 97
COCCOCCOCCOCCOCCNCc1ccc(C(=O)Nc2ccc(C)c(Nc3nccc(-c4cccnc4)n3)c2)cc1 [mPEG5-N-Imatinib] : 92
COCCOCCOCCOCCOCCOCCOCCOCCOCCN1CCN(Cc2ccc(C(=O)Nc3ccc(C)c(Nc4nccc(-c5cccnc5)n4)c3)cc2)CC1 [mPEG9-N′-Imatinib] : 92
COCCOCCOCCOCCOCCOCCOCCOCCOCCNCc1ccc(C(=O)Nc2ccc(C)c(Nc3nccc(-c4cccnc4)n3)c2)cc1 [mPEG9-N-Imatinib] : 89
